System: MCF7 breast
Experimental Details: NCI tumour cell line growth inhibition, 48 h; in the data active = GI50 below about 0.43 µM; inactive = the rest
// classify into active, inactive

QUERY: Called result for CCCNc1cccc(-n2ncc3c(N/N=C/c4ccncc4)ncnc32)c1
RESULT: inactive

QUERY: Called result for Cc1cc(Cl)ccc1NC(=O)NC(C)(C)COC(=O)Nc1cccc(Cl)c1
RESULT: inactive

QUERY: Called result for Cc1nc2sc(C(=O)Nc3cccc(Cl)c3C)c(N)c2cc1C(C)O (stereo not drawn)
RESULT: active

---

System: PC-3 prostate
Experimental Details: NCI tumour cell line growth inhibition, 48 h; in the data active = GI50 below about 0.43 µM; inactive = the rest
// classify into yes (active), no (inactive)

QUERY: Called result for CN(C)c1ccc(N=C(C#N)c2nc(N)nc(N3CCN(c4ccccc4)CC3)n2)cc1
RESULT: no

QUERY: Called result for C#CCOc1cccc(Nc2ncc3ncn(C4CCN(C(=O)CCl)C4)c3n2)c1 (centres undefined)
RESULT: no

QUERY: Called result for Cc1cc(Cl)ccc1NC(=O)NC(C)(C)COC(=O)Nc1cccc(Cl)c1
RESULT: no

QUERY: Called result for Cn1c(O)c(N=NC(N)=S)c2ccccc21
RESULT: no

QUERY: Called result for COc1cc(/C=C\c2cc(OC)c(OC)c(OC)c2)cc(NS(=O)(=O)c2cccc(Cl)c2)c1OC
RESULT: yes

QUERY: Called result for COc1ccc(S(=O)(=O)n2c3ccccc3n3ncc(-c4nnc(C)o4)c23)cc1
RESULT: no

QUERY: Called result for CC(=O)O[C@H](C[C@H](C(C)C)N(C)C(=O)[C@@H](NC(=O)[C@H]1CCCCN1C)C(C)(C)C)c1nc(C(=O)N[C@@H](Cc2ccccc2)C[C@H](C)C(=O)O)cs1
RESULT: yes

QUERY: Called result for Cc1nn2c(/C=C3\C(=O)Nc4ccccc43)c(C)nc2s1
RESULT: no

QUERY: Called result for CC(C)=CCC/C(C)=C/[C@H]1OC(=O)CC12C[C@H](O)C=CC2=O (some centres undefined)
RESULT: yes

---

Assign TGI to each entry below.
System: A498 renal
Experimental Details: NCI tumour cell line growth inhibition, 48 h

QUERY: Given NC1CCCCC1N.O=S(=O)([O-])CCCN1CCN(CCO)CC1.O=S(=O)([O-])CCCN1CCN(CCO)CC1.[Pt+4] , state its recorded TGI.
RESULT: > 100 µM

QUERY: Given CC1(C)N=C(N)N=C(N)N1c1ccc(OCCCCNC(=O)c2ccc(S(=O)(=O)F)cc2)c(Cl)c1 , state its recorded TGI.
RESULT: > 100 µM

QUERY: Given C=C1C(=O)O[C@H]2[C@H]([C@H](C)CCCC(C)=O)O[C@H]([C@@]3(C)CCC(=O)O3)C[C@@H]12 , state its recorded TGI.
RESULT: > 100 µM

QUERY: Given COC(=O)/C(=N/O)C(C(=O)OC)C(=O)C(=O)Nc1c(Cl)cc(C)cc1S(=O)(=O)O (centres undefined) , state its recorded TGI.
RESULT: > 100 µM

QUERY: Given CN/N=C(\C(=O)Nc1ccc([N+](=O)[O-])cc1[N+](=O)[O-])C1NC(=O)NC1=O (centres undefined) , state its recorded TGI.
RESULT: > 100 µM

QUERY: Given COC(=O)C[C@H](CCSC)NC(=O)C[C@H](CCSC)NC(=O)C[C@H](CCSC)NC(=O)OC(C)(C)C , state its recorded TGI.
RESULT: 46.4 µM

QUERY: Given O=C1C2=C(c3ccccc31)C(c1ccc(Cl)cc1)NC(=S)N2 (centres undefined) , state its recorded TGI.
RESULT: > 100 µM

QUERY: Given O=C(C=P(c1ccccc1)(c1ccccc1)c1ccccc1)c1ccc(-c2ccc(F)cc2F)cc1 , state its recorded TGI.
RESULT: 7.41 µM

QUERY: Given CCCC(=O)Nc1cc(/C=C/C(=O)N2C[C@H]3C[C@@]34C2=CC(=O)c2[nH]cc(C)c24)n(C)c1 , state its recorded TGI.
RESULT: < 0.0025 µM

QUERY: Given CN(C)CCNc1c2c(c(NCCN(C)C)c3c(CO)c[nH]c13)C(=O)c1ccccc1C2=O , state its recorded TGI.
RESULT: 34.7 µM

QUERY: Given COc1ccc(C(C)NNC(=O)c2ccncc2)cc1F (centres undefined) , state its recorded TGI.
RESULT: > 100 µM

QUERY: Given C/C(=C\c1ccccc1)C(=O)NCc1ccc(C(=O)NCCc2c[nH]c3ccccc23)cc1 , state its recorded TGI.
RESULT: > 100 µM

QUERY: Given O=S1(=O)CC(Br)C(Br)C1 (centres undefined) , state its recorded TGI.
RESULT: 55.1 µM

QUERY: Given COC(=O)C1=C(c2cc(OC)c(OC)c(OC)c2)O[C@H](c2ccc3c(c2)OCO3)[C@H]1COC(C)=O , state its recorded TGI.
RESULT: 48.6 µM

QUERY: Given O=C1C2=C(c3ccccc31)C(c1ccc(F)cc1)N1C(=O)CCSC1=N2 (centres undefined) , state its recorded TGI.
RESULT: > 100 µM

QUERY: Given COc1cc2c3c(c1OC)Oc1ccc(cc1)CC1c4c(cc(OC)c(OC)c4Oc4ccc(cc4)CC3N(C)CC2)CCN1C (centres undefined) , state its recorded TGI.
RESULT: 34 µM

QUERY: Given CC1=NN(C(=O)c2cc(Cl)cc([N+](=O)[O-])c2)C(=O)C1N=Nc1ccccc1C(=O)O (centres undefined) , state its recorded TGI.
RESULT: > 100 µM

QUERY: Given CN(C)c1ccc(/C=C2\C[C@H]3[C@@H]4CCc5cc(O)ccc5[C@H]4CC[C@]3(C)C2=O)cc1 , state its recorded TGI.
RESULT: > 100 µM

QUERY: Given CC(C)c1nccn1Cc1ccc(Cl)cc1Cl , state its recorded TGI.
RESULT: > 100 µM
